Target or system UniProtKB P04626; metric IC50; compiled from varied reports.

N#Cc1cccc(NC(=O)Nc2ncnc3nn4ccccc4c23)c1 ... > 10000 nM
CC(C)c1nc(-c2ccc(F)c(NS(=O)(=O)c3c(F)cccc3F)c2)c(-c2ccnc(Nc3ccc(N4CCN(CCS(C)(=O)=O)CC4)c(F)c3)n2)s1 ... 100 to 1000 nM

Asked: Any idea what its IC50 is? The compound is CN(c1ccc(Cl)c(Cl)c1)c1ncnc(Nc2ccc3c(cnn3Cc3ccccc3)c2)n1
Given back: 5040 to 7350 nM

Asked: What do you get for Cc1nccc(-c2cccc(Nc3ncnc(Nc4ccc5c(cnn5Cc5ccccc5)c4)n3)c2)n1 ?
Given back: 824 to 4940 nM

Asked: Consider next the compound CCN(CC)Cc1ccc(-c2ccc3ncnc(Nc4ccc(OCc5cccc(F)c5)c(Cl)c4)c3c2)o1 in the same way.
Given back: < 10000 nM

Asked: Same question, CC(C)c1nc(-c2cccc(NS(=O)(=O)c3c(F)cccc3F)c2)c(-c2ccnc(Nc3ccc(N4CCCN(CCS(C)(=O)=O)CC4)nc3)n2)s1 this time
Given back: 100 to 1000 nM

Asked: Same for CN(C)C/C=C/C(=O)N1CCOc2c1ccc1ncnc(Nc3ccc(Oc4cccc(F)c4)cc3)c21
Given back: ≤ 50 nM

Asked: What do we get for C=CC(=O)N1CCOc2c1ccc1ncnc(Oc3ccc(OCc4ccccn4)c(Cl)c3)c21 ?
Given back: ≤ 50 nM

---

// note: IC50 values for Receptor tyrosine-protein kinase erbB-2 (Homo sapiens) were reported in different studies

COC(=O)c1ccc(-c2cc(Nc3ncnc(NCc4ccco4)n3)[nH]n2)cc1 ... > 11500 nM
CCO/N=C/c1c(N)ncnc1Nc1ccc2[nH]ccc2c1 ... 600 nM
CN(c1cccc(Cl)c1)c1ncnc(Nc2cc(C(C)(C)C)on2)n1 ... > 12500 nM
CC(C)(F)c1nc(-c2ccc(F)c(NS(=O)(=O)c3c(F)cccc3F)c2)c(-c2ccnc(Nc3ccc(N4CCOCC4)nc3)n2)s1 ... > 1000 nM
COc1ccc(Nc2ncnc(NCCC#N)n2)cc1OC ... > 15000 nM
CCN(CC)CCOc1ccc(Nc2ncnc(Nc3cc(OC)c(OC)c(OC)c3)n2)cc1OC ... 802 to 4810 nM
Cc1cccc(COc2ccc(Nc3ncnc4ccc5c(c34)OCCN5C(=O)/C=C/CN(C)C)cc2)c1 ... ≤ 50 nM

Then there is this molecule:
Asked: Any idea what its IC50 is? The molecule is C=CC(=O)N1CCOc2c1ccc1ncnc(Nc3ccc(OCc4cccc(F)c4)c(OC)c3)c21
Given back: ≤ 50 nM

---

pIC50: −log10 of the molar value.
This section presents pIC50 values reported for Receptor tyrosine-protein kinase erbB-2 (Homo sapiens, UniProt P04626) in the literature.

// worked examples, pIC50 included
O=C(O)Cc1cccc(Nc2ncnc(-c3cccnc3Nc3ccccc3)n2)c1 ... 5.06 to 5.22
COc1cc(Nc2ncnc(-c3cccnc3Nc3ccc(Cl)cc3C)n2)cc(OC)c1OC ... < 5.03
COC(=O)c1ccc(-c2cc(Nc3ncnc(NC4=NC(=O)CS4)n3)[nH]n2)cc1 ... 5.23 to 6.01
CC(C)c1nc(-c2cc(F)c(F)c(NS(=O)(=O)c3cccc(F)c3)c2)c(-c2ccnc(Nc3cnc(N4CCOCC4)c(F)c3)n2)s1 ... < 6.00
CCN(c1cccc(Cl)c1)c1ncnc(Nc2cc(OC)cc(OC)c2)n1 ... 5.21 to 5.98
COc1cc(N2CCN(CCS(C)(=O)=O)CC2)c(C)cc1Nc1nccc(-c2sc(C(C)C)nc2-c2cccc(NS(=O)(=O)c3c(F)cccc3F)c2)n1 ... > 7.00

Asked: I would be grateful if you could share the reported pIC50 for c1ccc(Nc2ncccc2-c2ncnc(Nc3cccc(Cn4ccnn4)c3)n2)cc1 .
Given back: < 4.97

Asked: What do you have for CN(C)C/C=C/C(=O)N1CCOc2c1ccc1ncnc(Nc3ccc(Oc4ccc(Cl)cc4)cc3)c21 ?
Given back: ≥ 7.30

Asked: What about COc1cc(Nc2ncnc(Nc3ccc(NC(C)=O)c(C(F)(F)F)c3)n2)cc(OC)c1OC ?
Given back: < 5.03

Asked: Then this compound: Nc1ncnc(Nc2ccc3c(cnn3Cc3cccc(F)c3)c2)c1/C=N\OCCCO
Given back: 8.40

Asked: Field entry: CCN1CCN(c2ccc(Nc3nccc(-c4c[nH]nc4-c4ccc(C)cc4)n3)cc2)CC1
Given back: 7.47

Asked: Thanks! And c1ccc(Nc2ncccc2-c2ncnc(Nc3ccc(N4CCOCC4)cc3)n2)cc1 ?
Given back: 5.25 to 6.03

Asked: Same lookup for O=C(NCC#Cc1cc2ncnc(Nc3ccc(OCc4cccc(F)c4)c(Cl)c3)c2s1)c1c(Cl)cccc1Cl , please.
Given back: 7.00 to 7.50

Asked: What about [2H]C1([2H])C([2H])([2H])C2(COc3ccc(F)c(-c4cn([C@H]5C[C@@H](N6CCN(C(C)=O)CC6)C5)c5ncnc(N)c45)c3)OC1([2H])C([2H])([2H])C2([2H])[2H] ?
Given back: < 5.00

Asked: Please answer likewise for COc1cc(N2CCN(CCS(C)(=O)=O)CC2)c(C)cc1Nc1nccc(-c2sc(C3CCCC3)nc2-c2cccc(NS(=O)(=O)c3c(F)cccc3F)c2)n1
Given back: 6.00 to 7.00
